biological target: X-IAP BIR3 (Homo sapiens, UniProt P98170); construct: 0.5 μM X-IAP BIR3; test: Fluorescence polarization peptide binding assay, X-IAP BIR3; details: determined from the IC50 values (procedure of Keating et al.)
Sequence (P98170 241-356 limits assumed): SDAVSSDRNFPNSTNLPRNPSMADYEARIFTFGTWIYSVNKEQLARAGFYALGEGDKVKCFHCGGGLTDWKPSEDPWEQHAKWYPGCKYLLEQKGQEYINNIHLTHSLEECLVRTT
ASSAY ENDPOINT: Ki (nM)

{"TEST SMILES": "CN[C@@H](C)C(=O)N[C@H](C(=O)N[C@H](C(=O)Nc1snnc1-c1ccccc1)C(C)(C)OC)C1CCCCC1", "RESULT UNITS": "nM", "MEASURED NUMBER": 1980}
{"TEST SMILES": "CN[C@@H](C)C(=O)N[C@H](C(=O)N(C)[C@H](C(=O)Nc1snnc1-c1ccccc1)C(C)(C)SC)C1CCCCC1", "RESULT UNITS": "nM", "MEASURED NUMBER": 2490}

---

Molecular target: ML/X-IAP chimera MLXBIR3SG (Homo sapiens, UniProt Q96CA5, S150G)
Sequence (Q96CA5 with tags, fused parts or gaps S150G): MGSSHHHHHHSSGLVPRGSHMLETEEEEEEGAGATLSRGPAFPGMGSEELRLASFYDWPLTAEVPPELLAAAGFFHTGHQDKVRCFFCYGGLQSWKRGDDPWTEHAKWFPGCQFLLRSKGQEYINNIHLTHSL
Experiment: Fluorescence polarization peptide binding assay, MLXBIR3SG
Settings: determined from the IC50 values (procedure of Keating et al.)
pKi: −log10 of the molar value.
ASSAY ENDPOINT: pKi

Study these solved cases before continuing.
{"TEST SMILES": "CN[C@@H](C)C(=O)N[C@H](C(=O)N[C@H](C(=O)NCC(c1ccccc1)c1ccccc1)C(C)(C)SCNC(C)=O)C1CCCCC1", "pKi": 6.25}
{"TEST SMILES": "CN[C@@H](C)C(=O)N[C@H](C(=O)N[C@H](C(=O)Nc1snnc1-c1ccccc1)C1(C)CCOCC1)C1CCCCC1", "pKi": 7.39}

P. CN[C@@H](C)C(=O)N[C@H](C(=O)N[C@H](C(=O)Nc1snnc1-c1ccccc1)C(C)(C)SCNC(C)=O)C1CCCCC1
Q. CN[C@@H](C)C(=O)N[C@H](C(=O)N[C@H](C(=O)Nc1snnc1-c1ccccc1)C(F)(F)F)C1CCCCC1
R. CN[C@@H](C)C(=O)N[C@H](C(=O)N(C)[C@H](C(=O)Nc1snnc1-c1ccccc1)C(C)C)C1CCCCC1
Order the entries by their reported pKi, beginning at the minimum. Answer format: the labels, ordered as requested.
Q, P, R
(Q: 5.96, P: 7.03, R: 7.24)

---

target: C-IAP1 BIR3 (Homo sapiens, UniProt Q13490); construct: 0.2 μM C-IAP1 BIR3; test: Fluorescence polarization peptide binding assay, C-IAP1 BIR3; conditions: 0.2 μM C-IAP1 BIR3, 5 nM AVP-diPhe-FAM probe, one hour incubation
Sequence (Q13490 253-363 limits assumed): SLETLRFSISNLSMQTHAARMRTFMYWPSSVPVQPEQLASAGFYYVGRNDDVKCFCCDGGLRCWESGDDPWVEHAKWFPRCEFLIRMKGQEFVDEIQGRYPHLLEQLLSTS
ASSAY ENDPOINT: IC50 (nM)

{"COMPOUND": "CN[C@@H](C)C(=O)N[C@H](C(=O)N[C@H](C(=O)NCC(c1ccccc1)c1ccccc1)C(F)(F)F)C1CCCCC1 [Compound 8]", "IC50 (nM)": 3120}

P. CN[C@@H](C)C(=O)N[C@H](C(=O)N[C@H](c1nc(-c2ccc(F)c3ccccc23)cs1)C(C)(C)SCc1ccc(OC)cc1)C1CCCCC1 [Compound 22]
Q. CN[C@@H](C)C(=O)N[C@H](C(=O)N(C)[C@H](C(=O)Nc1snnc1-c1ccccc1)C(C)(C)C)C1CCCCC1 [Compound 24]
Lab notebook, comparison: P versus Q , higher IC50 goes to which? Could you answer with the label of the item you picked?
P
(P: 2290 nM, Q: 1320 nM)

---

Biological target: ML/X-IAP chimera MLXBIR3SG (Homo sapiens, UniProt Q96CA5, S150G)
Test: Fluorescence polarization peptide binding assay, MLXBIR3SG
Conditions: determined from the IC50 values (procedure of Keating et al.)
Protocol: The following fluorescence polarization experiments used a chimeric BIR domain referred to as MLXBIR3SG in which 11 of 110 residues correspond to those found in XIAP BIR3, while the remainder correspond to ML-IAP BIR. […] Polarization experiments were performed on an Analyst HT 96-384 reader (Molecular Devices Corp.) in order to determine dissociation constants (Kd) between IAP protein BIR domains and the fluorescent probe. […]
ASSAY ENDPOINT: Ki (nM)

{"TEST SMILES": "CN[C@@H](C)C(=O)N[C@H](C(=O)N[C@H](C(=O)Nc1snnc1-c1ccccc1)C(C)(C)OC)C1CCCCC1", "Ki / nM": 64}

A. CN[C@@H](C)C(=O)N[C@H](C(=O)N[C@H](C(=O)Nc1snnc1-c1ccccc1)C(C)(C)SCc1ccc(OC)cc1)C1CCCCC1
B. CN[C@@H](C)C(=O)N[C@H](C(=O)N[C@H](C(=O)Nc1snnc1-c1ccccc1)C(C)(C)S(C)(=O)=O)C1CCCCC1
Lab notebook, comparison: A versus B , higher Ki goes to which? Could you answer with the label of the item you picked?
B
(B: 547 nM, A: 124 nM)

---

Molecular target: X-IAP BIR3 (Homo sapiens, UniProt P98170)
Construct: 0.5 μM X-IAP BIR3
Experiment: Fluorescence polarization peptide binding assay, X-IAP BIR3
Details: 0.5 μM X-IAP BIR3, 5 nM AVP-diPhe-FAM probe, one hour incubation
Experimental: Polarization experiments were performed on an Analyst HT 96-384 reader (Molecular Devices Corp.) in order to determine dissociation constants (Kd) between IAP protein BIR domains and the fluorescent probe. […] The reactions were read after an incubation time of 1 hour at room temperature with standard cut-off filters for the fluorescein fluorophore (λex=485 nm; λem=530 nm) in 384-well black plates (Molecular Devices Corp.). […] The apparent Kd values were determined from the EC50 values. […]
pIC50: −log10 of the molar value.
The entries below come with measured pIC50 values attached.

{"COMPOUND": "CN[C@@H](C)C(=O)N[C@H](C(=O)N(C)[C@H](C(=O)Nc1ccccc1-c1ncccn1)C(C)C)C1CCCCC1 [Compound 7]", "MEASURED ON": "X-IAP BIR3 (Homo sapiens, UniProt P98170)", "RESULT": "< 3.70"}
{"COMPOUND": "CN[C@@H](C)C(=O)N[C@H](C(=O)N[C@H](C(=O)Nc1snnc1-c1ccccc1)C(C)(C)SC)C1CCCCC1 [Compound 20]", "MEASURED ON": "X-IAP BIR3 (Homo sapiens, UniProt P98170)", "RESULT": 4.66}
{"COMPOUND": "CN[C@@H](C)C(=O)N[C@H](C(=O)N[C@H](C(=O)NCC(c1ccccc1)c1ccccc1)C(C)(C)SC)C1CCCCC1 [Compound 13]", "MEASURED ON": "X-IAP BIR3 (Homo sapiens, UniProt P98170)", "RESULT": "< 3.70"}

For CN[C@@H](C)C(=O)N[C@H](C(=O)N[C@H](C(=O)Nc1cc(C)nn1-c1ccccc1)C(C)(C)SCc1ccc(OC)cc1)C1CCCCC1 [Compound 16] the compound record lists pIC50 as < 3.70

For CN[C@H](C)C(=O)N[C@@H](C(=O)N[C@@H](C(=O)NCC(c1ccccc1)c1ccccc1)C(C)(C)C)C1CCCCC1 [Compound 15] the compound record lists pIC50 as < 3.70

For CN[C@@H](C)C(=O)N[C@H](C(=O)N[C@H](C(=O)Nc1snnc1-c1ccccc1)C1(C)CCOCC1)C1CCCCC1 [Compound 3] the compound record lists pIC50 as 4.95

---

Molecular target: C-IAP1 BIR3 (Homo sapiens)
Construct: 0.2 μM C-IAP1 BIR3
Assay: Fluorescence polarization peptide binding assay, C-IAP1 BIR3
Conditions: determined from the IC50 values (procedure of Keating et al.)
Description: Polarization experiments were performed on an Analyst HT 96-384 reader (Molecular Devices Corp.) in order to determine dissociation constants (Kd) between IAP protein BIR domains and the fluorescent probe. […] The reactions were read after an incubation time of 1 hour at room temperature with standard cut-off filters for the fluorescein fluorophore (λex=485 nm; λem=530 nm) in 384-well black plates (Molecular Devices Corp.). […] The apparent Kd values were determined from the EC50 values. […]
ASSAY ENDPOINT: Ki (nM)

I. CN[C@@H](C)C(=O)N[C@H](C(=O)N[C@H](C(=O)NCC(c1ccccc1)c1ccccc1)C(C)(C)SC)C1CCCCC1
II. CN[C@@H](C)C(=O)N[C@H](C(=O)N[C@H](C(=O)Nc1snnc1-c1ccccc1)C(C)(C)S(C)(=O)=O)C1CCCCC1
Of I and II , which carries the smaller reported Ki figure? Could you answer with the label of the item you picked?
II
(II: 108 nM, I: 602 nM)

A. CN[C@@H](C)C(=O)N[C@H](C(=O)N[C@H](C(=O)Nc1sc(-c2cnccn2)nc1-c1ccccc1)C(C)(C)C)c1ccccc1
B. CN[C@@H](C)C(=O)N[C@H](C(=O)N[C@H](C(=O)Nc1snnc1-c1ccccc1)C(F)(F)F)C1CCCCC1
Lab notebook, comparison: A versus B , higher Ki goes to which? Could you answer with the label of the item you picked?
A
(A: 2090 nM, B: 328 nM)

1. CN[C@@H](C)C(=O)N[C@H](C(=O)N[C@H](C(=O)NCC(c1ccccc1)c1ccccc1)C(C)(C)SCc1ccc(OC)cc1)C1CCCCC1
2. CN[C@@H](C)C(=O)N[C@H](C(=O)N[C@H](C(=O)Nc1cc(C)nn1-c1ccccc1)C(C)(C)SCc1ccc(OC)cc1)C1CCCCC1
Lab notebook, comparison: 1 versus 2 , higher Ki goes to which? Could you answer with the label of the item you picked?
1

Ref: patent US20110046066A1
